All figures here come from patent US20240247080A1.

Molecular target: GLP-1 receptor (human (printed as hGLP1R), UniProt P43220 24-463)
Assay: cell-based or functional assay
Starred links: 1 amine or outer side, 2 acyl side, 3 side chain; linkers in the order of their positions; H or OH if unused. Non-standard residues stand in square brackets, D forms with d. Groups on a side chain read outwards from the residue. No end group written: not given here. *: point of attachment. C18 diacid = O=C(O)CCCCCCCCCCCCCCCCC(=O)*; γGlu = O=C(O)[C@H](CCC(=O)[*:2])N[*:1]; AEEA = NCCOCCOCC(=O)O; Aib = CC(C)(N)C(=O)O
Doc: threshold 5 nM (exclusive). Items with EC50 hGLP1R 100% hP (CreLuc) beneath it return label 1; others return label 0.

{"binder": "Y[Aib]EGTFTSDYSI[Aib]LEKQAQ[Aib]EFVEWLIKGGPSSGASLRHYYNWLTRQRY-NH2 (not fully specified (residue 28); also: TFA salt) [Compound 198]", "class_label": "label 0"}
{"binder": "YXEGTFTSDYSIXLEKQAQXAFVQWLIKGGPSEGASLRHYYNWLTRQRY (Aib at 2, 13, 20; K28 side chain carries C18DA-gGlu-gGlu-gGlu-gGlu-gGlu; C-terminal amide) [Compound 250]", "class_label": "label 1"}
{"binder": "YXEGTFTSDYSIXLEKQAQXEFVEWLIKGGPSSGASLRHYYNWLTRQRY (Aib at 2, 13, 20; K28 side chain carries C20DA-gGlu-gGlu-gGlu-gGlu-gGlu-gGlu-eLys; C-terminal amide) [Compound 215]", "class_label": "label 0"}
{"binder": "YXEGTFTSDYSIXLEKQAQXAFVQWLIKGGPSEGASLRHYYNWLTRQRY (Aib at 2, 13, 20; K28 side chain carries C20DA-gGlu-gGlu-gGlu-gGlu-gGlu-gGlu-eLys; C-terminal amide) [Compound 220]", "class_label": "label 0"}
{"binder": "Y[Aib]EGTFTSDYSI[Aib]LEKQAQ[Aib]AFVEWLIK([AEEA-AEEA-γGlu-γGlu-γGlu-γGlu-C18 diacid])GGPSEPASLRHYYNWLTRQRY-NH2 (also: TFA salt) [Compound 256]", "class_label": "label 1"}
